- Test: protein stability index of a GFP-peptide fusion (GPS, HEK-293T) (PSI 1-6); higher = more stable;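 further: 24-mer peptide tiles fused after GFP, lentivirally expressed, FACS-sorted into six equal bins by GFP/DsRed ratio, decoded by Illumina sequencing, PSI is the read-weighted mean bin number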
- Condition parameters: treatment: MLN4924 1 uM, 8 h; c terminus: a fixed tail appended
Classification field: 1 (yes) = protein stability index at or over 4; 0 (no) = protein stability index under 4.

// below: answered sequences
LDLDSIIDEVRTQYEEIALKSKAE [KRT71]; 1 (yes)
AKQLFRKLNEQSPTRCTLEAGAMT [SEC22B]; 0 (no)
QKELKKAQMAKAAAEERALFTDRM [WEE1]; 1 (yes)
GGFGGGFAGGFVDFGACDGGLLTG [KRT13]; 0 (no)
WDLSEAWMQANYDPLSDSDSMTSQ [ELOA2]; 1 (yes)

Ask: Decide: is the reported value of protein stability index for YNCGEESLQSCMHFQPNSPASDLE [NANOGP8] equal to or greater than 4?
Reply: 1 (yes)

Ask: Say whether LQQDFQNIQETHRLYRLKLEELTK [TMEM120A] shows protein stability index of 4 or more.
Reply: 0 (no)

Ask: Form field: protein stability index at least 4? Entry: EPGRLGSSSPASVTTEQLGAKMTE [PXN]
Reply: 1 (yes)

---

- Test: protein stability index of a GFP-peptide fusion (GPS, HEK-293T) (PSI 1-6); higher = more stable
- Condition parameters: treatment: MLN4924 1 uM, 8 h; c terminus: a fixed tail appended
Catalogue of protein stability index readings, one per entry.
Just the number.

DDSCQDQPGTNCALAIKVNLCGHW [ADAMTSL2]; 2.65

Ask: Reported protein stability index for LISKGANVNRTTANNDHTVLSLAC [ANKRD17] : what is it?
Reply: 2.81

Ask: Tell me the measured protein stability index of PLVGQDEFFLEQTKKKGVKRPARL [NOP53] , please.
Reply: 4.2

Ask: Please give the measured protein stability index for this sequence: FPYEYSYGLQGGMAFLDKRLQVKE [ATL3]
Reply: 2.69

Ask: GET /values?readout=protein stability index&item= ELGSEVDITEGDRKPDYTAYVAMI [ATF4]
Reply: 3.61

Ask: Would you mind telling me what protein stability index value was observed for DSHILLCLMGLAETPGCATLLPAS [DCAF4] ?
Reply: 2.58

---

- Test: protein stability index of a GFP-peptide fusion (GPS, HEK-293T) (PSI 1-6); higher = more stable
- Condition parameters: treatment: DMSO; c terminus: a fixed tail appended
Quantity name: protein stability index
// response body must contain only the number

Ask: Need protein stability index of FCIPEHISPKARCLIRSLLRREPS [TRIB1] , thanks.
Reply: 2.34

Ask: Given the entry LPPPCAALWCSGHLNGHAMCQTKH [ADAMTS4] , report its measured protein stability index.
Reply: 3.13

Ask: Would you mind telling me what protein stability index value was observed for ESLLAPLNVELDPEIQKVRAQERE [KRT71] ?
Reply: 5.54

Ask: Can you look up the measured protein stability index of STCDTLGMADVGTVCDPARSCAIV [ADAMTS4] for me?
Reply: 3.92

Ask: Would you kindly share the measured protein stability index for RDLINCCYVSRRLSQLSSHDPLWR [FBXO3] ?
Reply: 2.09

Ask: What does the data say about its protein stability index? Entry: ERHCHLYTFHARFGEVRPYFYLGG [TRIM35]
Reply: 2.61

---

Reported protein stability index values are given for each entry in this list.
- Test: protein stability index of a GFP-peptide fusion (GPS, HEK-293T) (PSI 1-6); higher = more stable
- Condition parameters: treatment: MLN4924 1 uM, 8 h; c terminus: a fixed tail appended

FKKVLDLNPGFQDATLSLKQTILD [TTC32]; 2.86
KRFTDAGFEHYDLFFIDGSTPSDN [CDC14A]; 3.45
LFPPKAKSNQPKSLEDLIFESLPE [ATE1]; 3.66
DANLLNDRVLRAMLKAEETCAPSV [CCND1]; 3.61

Ask: Please look up its protein stability index: VMLTLSDSKHVVLPVDDDSDLNVV [RBBP5]
Reply: 3.49

Ask: # get_value(readout='protein stability index', item= QKTRLLEDSVSRLEKEIEVLERGD [PALM] )
Reply: 5.03

Ask: Requested read-out: protein stability index. Entry: PGPERLFDSHRLPGDCFLLLVLLL [AUP1]
Reply: 2.14

Ask: Sample TLNIKETDSKELSMAKEVIAKELS [ZBED1] — what was its protein stability index?
Reply: 4.13

Ask: Quick check: protein stability index of EELSVLEVFEGREDSIFGDPKKLL [MAGEA6] ?
Reply: 4.32

Ask: So what does the record say about protein stability index for ALLKFHTLDSYEDKQKLKRTEIIS [YJU2B] ?
Reply: 2.53

Ask: Fill in: protein stability index of FAASLLTVFAWLLQYARGLWLARA [C2CD2L] is ___
Reply: 2.54

Ask: Look at this sequence and give its reported protein stability index. ISDNSISWSAGLHNRYTENSLRGV [FUT8]
Reply: 2.87

Ask: Which value of protein stability index has been reported for RAGGPPRPMSEPGAGAGSSLLDVA [SMAD6] in the records?
Reply: 4.37

Ask: Fill in the blank: the reported protein stability index of TFPFKILGDSGLGPWQLNVFVCRV [P2RY14] is ____.
Reply: 3.26

Ask: Endpoint output: protein stability index of REVRQFQFTAWPDHGVPEHPTPFL [PTPRD] . Value?
Reply: 2.97

---

# protein stability index per record follows
- Test: protein stability index of a GFP-peptide fusion (GPS, HEK-293T) (PSI 1-6); higher = more stable
- Condition parameters: treatment: DMSO; c terminus: a fixed tail appended
Please give only the number in your answer, with no unit.

ITLSQEQIQKYTDCLQFYVNSTLK [RTN1]; 2.08
TEQLWRIFAGVHDEKAKPRDRQQA [TLE6]; 3.45
LQGALDLLAVLCVDGSGRARQAAC [ZSWIM9]; 2.2
LEENDETRFILSKVPSEAPSPMPT [SLC6A17]; 4.8

Ask: Given the entry TVVGLFNVRDRDSGRNGEVSLDIS [PCDHGC5] , report its measured protein stability index.
Reply: 2.83

Ask: Would you mind telling me what protein stability index value was observed for EPYGHLNPKWTKWLQKLCCPCCFG [PI4K2A] ?
Reply: 3.33

Ask: Give the measured protein stability index of LSFATRFHRLDEPPHICWDETHFG [POMT2] .
Reply: 2.25

Ask: Data request, read-out protein stability index, for SRELSLRPSRSGAQQLEEEGPMEE [EID1]
Reply: 5.58

Ask: Could you tell me which protein stability index is on file for ILLQDHIRDLDVVVVSVAGAFRKG [ATL3] ?
Reply: 2.94

Ask: Can you share its protein stability index? I mean this sequence: LLCWSVWWALSTCGYFQVVNYTQG [SLC19A2]
Reply: 3.41

Ask: // returns reported protein stability index for input VGPWLGQLQELLHHCDDHLSLYQL [RSAD1]
Reply: 2.25

Ask: Dear colleague, I am looking for the recorded protein stability index of the following sequence: RHIHHLGNQLQLNQHCLDTAFNFF [BRF1]
Reply: 2.29

Ask: Consider the sequence shown here: FLPLNSAQTLHHKSCYNGRFQLLY [DNAAF3] What is its recorded protein stability index?
Reply: 2.54

---

- Test: protein stability index of a GFP-peptide fusion (GPS, HEK-293T) (PSI 1-6); higher = more stable
- Condition parameters: treatment: DMSO; c terminus: a fixed tail appended
Quantity name: protein stability index
The answer should be a number; do not append a unit.

ALSPSATAKRINRTSLSSGATVRS [CDC14A]; 4.1
HVGWLLVRKHPAVKEKGSTLDLSD [SCD]; 2.3
SMALTCTFNRWGTLLAVGCNDGRI [RBBP5]; 2.48
SREYKLVMLGAGGVGKSAMTMQFI [RIT1]; 2.51

Ask: protein stability index for EEWLDILGNGLLRKKTLVPGPPGS [FKBP8] ?
Reply: 2.62

Ask: Given CDDGGDGRGAVVPGAGLRRPTYTP [ZBTB22] , state its recorded protein stability index.
Reply: 4.35

---

Each item that follows carries a reported protein stability index.
- Test: protein stability index of a GFP-peptide fusion (GPS, HEK-293T) (PSI 1-6); higher = more stable
- Condition parameters: treatment: DMSO; c terminus: a fixed tail appended
A bare number is all that is needed in reply.

Examples with answers:
SASHYKLQVIKALKSSGLCESLTY [M1AP]; 2.03
SSVICNDITAYLFGFFFGRTPLIK [CDS1]; 2.13

Ask: Name the reported protein stability index value associated with the sequence KKEDTEKERDLRDVGDWRKNIEEK [TNNI2]
Reply: 5.38

Ask: Entry AARAGHVCTVQFLISKGANVNRTT [ANKRD17] : reported protein stability index = ?
Reply: 1.83

Ask: // returns reported protein stability index for input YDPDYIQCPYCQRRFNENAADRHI [ZC2HC1A]
Reply: 3.84
